Tested on: rodent lifetime carcinogenesis bioassay, tumor incidence TD50
TEST METHOD NOTES: carcinogenic potency in animals, long-term in vivo studies, CPDB compilation (AID 1745844)
TEST CONTEXT: rat; strain Fischer 344; females; inhaled; site: liver; lesion: hepatocellular adenoma + hepatocellular carcinoma + neoplastic nodule; dosed 103 weeks; study length 104 weeks

- MOLECULE: "C=CC"
  TD50 [mg/kg/day]: 20500

###

Test system: rodent lifetime carcinogenesis bioassay, tumor incidence TD50
TEST METHOD NOTES: carcinogenic potency in animals, long-term in vivo studies, CPDB compilation (AID 1745844)
TEST CONTEXT: rat; strain Sprague-Dawley; males; in feed; site: nasal cavity; lesion: transitional-cell carcinoma; dosed 78 weeks; study length 104 weeks

- MOLECULE: "CCOc1ccc(NC(C)=O)cc1"
  MEASURED TARGET: "rodent lifetime carcinogenesis bioassay, tumor incidence TD50"
  TD50: "4050 mg/kg/day"

###

Test system: rodent lifetime carcinogenesis bioassay, tumor incidence TD50
TEST METHOD NOTES: carcinogenic potency in animals, long-term in vivo studies, CPDB compilation (AID 1745844)
TEST CONTEXT: rat; strain Charles River CD (Sprague-Dawley); males; in feed; site: liver; lesion: hepatocellular carcinoma; dosed 119 weeks; study length 119 weeks
Active and inactive are the calls of the source. No rule for the calls is given here.

- MOLECULE: "S=C([S-])NCCNC(=S)[S-].[Zn+2]"
  TD50: "1080 mg/kg/day (inactive)"

###

Tested on: rodent lifetime carcinogenesis bioassay, tumor incidence TD50
TEST METHOD NOTES: carcinogenic potency in animals, long-term in vivo studies, CPDB compilation (AID 1745844)
TEST CONTEXT: rat; strain F344/DuCrj; males; by gavage; site: liver; lesion: hepatocellular adenoma; dosed 104 weeks; study length 104 weeks
The source made the active and inactive calls. The rule behind the calls is not given here.
Catalogue of TD50 values

- COMPOUND: "CC1=C(C(=O)OC(C)C)C(c2cccc([N+](=O)[O-])c2)C(C(=O)OC2CN(C(c3ccccc3)c3ccccc3)C2)=C(N)N1 (configuration not stated)"
  TD50: "117 mg/kg/day (inactive)"
- COMPOUND: "OCC(CO)N[C@H]1C[C@](O)(CO)[C@@H](O)[C@H](O)[C@H]1O"
  TD50: "575 mg/kg/day (inactive)"

###

Test system: rodent lifetime carcinogenesis bioassay, tumor incidence TD50
TEST METHOD NOTES: carcinogenic potency in animals, long-term in vivo studies, CPDB compilation (AID 1745844)
TEST CONTEXT: rat; strain Fischer 344; males; by gavage; site: adrenal medulla; lesion: pheochromocytoma benign, bilateral + pheochromocytoma, complex + pheochromocytoma, malignant + pheochromocytoma malignant, bil; dosed 103 weeks; study length 104 weeks

- MOLECULE: "[Cl][Hg][Cl]"
  TD50: "1.6 mg/kg/day"

###

System: rodent lifetime carcinogenesis bioassay, tumor incidence TD50
TEST METHOD NOTES: carcinogenic potency in animals, long-term in vivo studies, CPDB compilation (AID 1745844)
TEST CONTEXT: rat; strain Fischer 344; females; in feed; site: pituitary gland; lesion: adenoma, NOS; dosed 105 weeks; study length 105 weeks
Active and inactive are the calls of the source. The rule behind the calls is not given here.
MEASURED ATTRIBUTE: TD50

- MOLECULE: "CCN(CC)C(=S)S[Te](SC(=S)N(CC)CC)(SC(=S)N(CC)CC)SC(=S)N(CC)CC"
  RESULT: "12.3 mg/kg/day (inactive)"
